- tested.target: Cytochrome P450 2C19 (Homo sapiens) (UniProt P33261)
- Sequence (P33261 whole entry, looked up): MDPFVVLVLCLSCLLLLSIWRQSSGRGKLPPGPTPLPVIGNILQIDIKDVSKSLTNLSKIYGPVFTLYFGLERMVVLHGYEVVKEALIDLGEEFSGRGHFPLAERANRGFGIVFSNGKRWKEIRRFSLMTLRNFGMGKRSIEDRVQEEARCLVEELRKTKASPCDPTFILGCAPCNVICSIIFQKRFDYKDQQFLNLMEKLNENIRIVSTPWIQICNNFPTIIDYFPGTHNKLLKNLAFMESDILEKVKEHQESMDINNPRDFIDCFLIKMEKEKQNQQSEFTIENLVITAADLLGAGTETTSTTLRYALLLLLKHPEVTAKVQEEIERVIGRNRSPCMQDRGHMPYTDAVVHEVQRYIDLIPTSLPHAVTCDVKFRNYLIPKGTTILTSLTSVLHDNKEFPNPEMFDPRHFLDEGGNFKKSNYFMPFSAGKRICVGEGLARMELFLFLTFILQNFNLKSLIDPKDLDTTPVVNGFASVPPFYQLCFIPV
- experimental.protocol: Cytochrome panel assay with activity outcomes
- measurement.conditions: recombinant CYP, pro-luciferin dealkylation, luminescence, p450-cyp2c19; series mostly up to 57.1 µM
The campaign covered roughly 16,000 compounds. About 5,800 (36%) were called active. Another 23% or so got no clear call; they are omitted. Calls come from the whole dose curve; as a rule, active = well fitted curve in the direction sought with a large enough effect; inconclusive = small, poorly fitted or top-dose-only effect, or effect the other way; inactive = no such curve, though single readings can be large or run the other way. This is one part of the list.
Outcome (select one): Y (active), N (inactive)

input: Returns: the outcome recorded for "O=c1ccc2cc(O)c(O)cc2o1" in this assay.
output: N

input: Returns: the outcome recorded for "COCCNc1nc(-c2ccccc2CN(C)C)nc2ccccc12" in this assay.
output: N

input: Returns: the outcome recorded for "COc1ccc(-n2c(-c3cnccn3)n[nH]c2=S)cc1" in this assay.
output: N

input: Returns: the outcome recorded for "FC(F)(F)c1cccc(NC(=S)Nc2cccc(Cl)c2)c1" in this assay.
output: Y

input: Returns: the outcome recorded for "COCCNc1nc(-c2ccc(N(C)C)cc2)nc2ccccc12" in this assay.
output: Y

input: Returns: the outcome recorded for "Cc1cc2nnc(SCC(=O)OC(C)C)n2c2ccccc12" in this assay.
output: Y

input: Returns: the outcome recorded for O=C(CC1C(=O)N(c2ccc(Cl)cc2)C(=S)N1CCc1ccncc1)Nc1ccc(F)cc1 (stereo not drawn) in this assay.
output: Y

input: Returns: the outcome recorded for CCn1c(SCC(=O)Nc2ccc3c(c2)OCCO3)nc2c(c1=O)SC(C)C2 (stereo not drawn) in this assay.
output: Y

input: Returns: the outcome recorded for "COc1cccc(C(=O)Nc2cc(C(F)(F)F)ccc2Cl)c1" in this assay.
output: Y

input: Returns: the outcome recorded for "CC(/C=N/n1c(-c2cccnc2)n[nH]c1=S)=C\c1ccccc1" in this assay.
output: Y

input: Returns: the outcome recorded for "CC(C)OC(=O)c1cccc(C(=O)Oc2ccc(Br)cc2)n1" in this assay.
output: N

input: Returns: the outcome recorded for "O=C(O)c1cc2cc(Cl)ccc2oc1=O" in this assay.
output: N

input: Returns: the outcome recorded for "CN(C)c1ccc(-c2nc(NCCc3cnc[nH]3)c3ccccc3n2)cc1" in this assay.
output: Y

input: Returns: the outcome recorded for "CC1(C)S[C@@H]2[C@H](NC(=O)[C@@H](N)c3ccccc3)C(=O)N2[C@H]1C(=O)O[C@H]1OC(=O)c2ccccc21" in this assay.
output: N

input: Returns: the outcome recorded for "COc1cc(/C=C/C(=O)Nc2cc(C(F)(F)F)ccc2Cl)cc(OC)c1OC" in this assay.
output: Y

input: Returns: the outcome recorded for "COCCNc1nc(-c2ccc(C(=O)N(C)C)cc2)nc2ccccc12" in this assay.
output: N

input: Returns: the outcome recorded for "COC(=O)c1ccc(Cl)c(NC(=O)c2ccc(-c3ccccc3)cc2)c1" in this assay.
output: N

input: Returns: the outcome recorded for "O=C(NCCN1CCOCC1)c1csc2c1CCCCC2" in this assay.
output: Y

input: Returns: the outcome recorded for "CCN(CC)c1ccc2cc(C(C)=O)c(=O)oc2c1" in this assay.
output: Y

input: Returns: the outcome recorded for "COCC(=O)N1CCC[C@@]2(CCN(c3ncccn3)C2)C1" in this assay.
output: N

input: Returns: the outcome recorded for "COc1ccc(CNc2nc(-c3c(C)noc3C)nc3ccccc23)c(OC)c1" in this assay.
output: Y

input: Returns: the outcome recorded for "CCc1ccc(C(=O)CN(C#N)c2nc(C)cc(C)n2)cc1" in this assay.
output: Y

input: Returns: the outcome recorded for "COc1ccc(C(=O)Nc2ccc(OCC(F)(F)C(F)F)c(C(F)(F)F)c2)cc1OC" in this assay.
output: Y
